Test system: lung (A549) carcinoma cell line
method-notes: cells
Format: cell-based, human
assay-setup: read-out: Cytotoxic activity IC90, A549
*1 amine or outer side, *2 acyl side, *3 side chain or, on linkers, in order; H or OH if unused. Where a SMILES comes first, the peptide text is derived from it. [ ]: non-standard residue; d: D form. X3 = CC1C(C)C1C(N[*:1])C(=O)[*:2]; NMeL = CN[CH](CC(C)C)C(=O)O; NMeA = CN[CH](C)C(=O)O
Below: a set of entries, each annotated with reported IC90.
attribute-measured: IC90 (nM)

INSERT INTO assay_data (compound, units_symbol, recorded_result) VALUES
  ('CC(C)CC1NC(=O)C(C)N(C)C(=O)C(C)N(C)C(=O)C(C2C(C)C2C)NC(=O)C(CC(C)C)N(C)C(=O)C(C)N(C)C(=O)C(C2C(C)C2C)NC1=O (centres unmarked) [Compound 1] (cyclo([X3][NMeA][NMeA]L[X3][NMeA][NMeL]); configuration not given here)', 'nM', 1.02),
  ('CC(C)CC1NC(=O)C(C)N(C)C(=O)C(C)N(C)C(=O)C(C2C(C)C2C)NC(=O)C(CC(C)CO)N(C)C(=O)C(C)N(C)C(=O)C(C2C(C)C2C)NC1=O (centres unmarked)', 'nM', 6.84);
